experiment: Proteolysis during production detected using mass spectroscopy; type: physicochemical; conditions: proteolytic stability
value_kind: Proteolysis During Production?

- ELA-G: Fc-linker fusion of elabela analogue KLRKHNCLQRRCMPLHSYVPFP (R18Y) (protein) MRAWIFFLLCLAGRALADKTHTSPPSPAPEAAGGPSVFLFPPKPKDTLMISRTPEVTCVVVDVSHEDPEVKFNWYVDGVEVHNAKTKPREEQYNSTYRVVSVLTVLHQDWLNGKEYKCKVSNKALPAPIEKTISKAKGQPREPQVYTLPPSREEMTKNQVNLTCLVKGFYPSDIAVEWESNGQPENNYKTTPPVLDSDGSFFLNSTLTVDKSRWQQGNVFSCSVMHEALHNHYTQKSLSLSPGKGGGGSGGGGSGGGGSKLRKHNCLQRRCMPLHSYVPFP: No
- ELA-A: Fc-linker fusion of wild-type elabela-22 KLRKHNCLQRRCMPLHSRVPFP (protein) MRAWIFFLLCLAGRALADKTHTSPPSPAPEAAGGPSVFLFPPKPKDTLMISRTPEVTCVVVDVSHEDPEVKFNWYVDGVEVHNAKTKPREEQYNSTYRVVSVLTVLHQDWLNGKEYKCKVSNKALPAPIEKTISKAKGQPREPQVYTLPPSREEMTKNQVNLTCLVKGFYPSDIAVEWESNGQPENNYKTTPPVLDSDGSFFLNSTLTVDKSRWQQGNVFSCSVMHEALHNHYTQKSLSLSPGKGGGGSGGGGSGGGGSKLRKHNCLQRRCMPLHSRVPFP: No
